biological target: T1, human CD1c expressed on HEK-293 cells (human, UniProt P29017 18-333; P61769 21-119); assay: flow cytometry, HEK-293 cells, 100 µg/ml antibody
T1 construct: also called HEK - CD1c
measurement.name: Fluorescence Intensity Geomean (normalized to background)

**Q:** What measured Fluorescence Intensity Geomean (normalized to background) goes with 110 (VR12112) (antibody, V domains shown, also called OX110; antibody 110) VH: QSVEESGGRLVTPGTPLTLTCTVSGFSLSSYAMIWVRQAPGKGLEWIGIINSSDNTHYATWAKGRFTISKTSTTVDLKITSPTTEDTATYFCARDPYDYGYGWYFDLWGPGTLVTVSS VL: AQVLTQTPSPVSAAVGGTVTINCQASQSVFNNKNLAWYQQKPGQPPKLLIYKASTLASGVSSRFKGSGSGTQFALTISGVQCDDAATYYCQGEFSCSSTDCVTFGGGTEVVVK ?
**A:** 1 fold over background

**Q:** Same question for 111 (VR12113) (antibody, V domains shown, also called OX111) VH: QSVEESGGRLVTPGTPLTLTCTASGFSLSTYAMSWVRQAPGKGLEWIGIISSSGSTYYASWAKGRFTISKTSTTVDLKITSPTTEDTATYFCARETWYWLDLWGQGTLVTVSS VL: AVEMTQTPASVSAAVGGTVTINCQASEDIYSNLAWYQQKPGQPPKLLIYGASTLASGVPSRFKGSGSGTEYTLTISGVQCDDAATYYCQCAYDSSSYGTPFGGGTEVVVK please.
**A:** 1.1 fold over background

**Q:** Now give it for 116 (VR12117) (antibody, V domains shown, also called OX116) VH: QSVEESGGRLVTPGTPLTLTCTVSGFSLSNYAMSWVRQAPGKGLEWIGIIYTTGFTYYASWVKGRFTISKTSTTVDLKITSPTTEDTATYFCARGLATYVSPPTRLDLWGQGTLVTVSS VL: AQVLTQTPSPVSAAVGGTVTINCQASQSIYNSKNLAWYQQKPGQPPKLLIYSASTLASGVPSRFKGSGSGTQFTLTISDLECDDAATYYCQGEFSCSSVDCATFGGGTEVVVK too.
**A:** 1 fold over background

**Q:** Likewise for 77A (VR11851) (antibody, V domains shown, also called OX77a; antibody 77a) VH: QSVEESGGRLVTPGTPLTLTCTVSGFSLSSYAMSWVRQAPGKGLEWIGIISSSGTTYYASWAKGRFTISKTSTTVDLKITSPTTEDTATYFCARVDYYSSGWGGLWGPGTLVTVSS VL: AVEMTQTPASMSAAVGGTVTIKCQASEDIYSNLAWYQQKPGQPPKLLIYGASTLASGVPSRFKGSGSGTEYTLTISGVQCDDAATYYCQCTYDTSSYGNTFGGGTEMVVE ?
**A:** 0.9 fold over background
